System Tested: 5-hydroxytryptamine receptor 2C (Homo sapiens, UniProt P28335)
Sequence (P28335 whole entry): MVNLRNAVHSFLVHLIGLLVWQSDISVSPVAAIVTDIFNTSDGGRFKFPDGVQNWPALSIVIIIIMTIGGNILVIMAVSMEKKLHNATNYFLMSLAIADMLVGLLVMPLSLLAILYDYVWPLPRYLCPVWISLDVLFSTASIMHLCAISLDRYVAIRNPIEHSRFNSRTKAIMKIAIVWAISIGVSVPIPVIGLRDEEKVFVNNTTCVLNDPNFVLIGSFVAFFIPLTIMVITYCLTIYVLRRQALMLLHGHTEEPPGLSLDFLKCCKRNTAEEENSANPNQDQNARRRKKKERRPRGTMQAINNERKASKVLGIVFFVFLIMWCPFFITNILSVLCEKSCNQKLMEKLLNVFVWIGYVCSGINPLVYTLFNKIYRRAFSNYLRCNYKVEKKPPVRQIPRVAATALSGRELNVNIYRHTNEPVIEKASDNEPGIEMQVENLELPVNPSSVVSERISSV
Reported Property: Ki (nM)

I. COc1ccc(N2CC=C(c3ccc(C(F)(F)F)cc3)C2=O)cc1OCCN1CCC(C)CC1
II. COc1ccc(N2CCC(c3ccc(OC)c(OCCN4CCCCC4)c3)C2=O)cc1 (configuration not stated)
III. COc1ccc(N2CC=C(c3cccc(C(F)(F)F)c3)C2=O)cc1OCCN1CCCCC1
IV. COc1ccc(N2CC=C(c3ccc(Cl)c(Cl)c3)C2=O)cc1OCCN1CCC(F)(F)CC1
V. COc1ccc(N2CCC(c3cccc(Cl)c3)C2=O)cc1OCCN1CCCCC1 (configuration not stated)
Put the entries in order of Ki, starting with the largest number. To answer, write out the labels according to the requested order.
II, V, I, IV, III
(II: 100 nM, V: 25.1 nM, I: 12.6 nM, IV: 7.94 nM, III: 5.01 nM)
